# inhibition at 10 µM per record follows
# testProtocol: Inhibition of peroxynitrite-induced cell death in Sprague-Dawley rat primary mixed cortical cells at 10 uM after 24 hrs by trypan blue absorbance assay
# Type: functional
Output spec: scalar in %, unitless text.

Before answering, review these 3 worked examples.
Q: Entry under review: CC(C)(CNC(=O)CCC(F)(F)C(F)(F)C(F)(F)C(F)(F)C(F)(F)C(F)(F)F)/[N+]([O-])=C/c1ccc(CNC(=O)[C@H](O)[C@H](O)[C@H](O[C@@H]2O[C@H](CO)[C@H](O)[C@H](O)[C@H]2O)[C@@H](O)CO)cc1 . Reported inhibition at 10 µM?
A: 40.1

Q: // next record CCCCCCCC(=O)NCC(C)(C)/[N+]([O-])=C/c1ccc(CNC(=O)[C@H](O)[C@H](O)[C@H](O[C@@H]2O[C@H](CO)[C@H](O)[C@H](O)[C@H]2O)[C@@H](O)CO)cc1
A: 61

Q: // next record CC(C)(CNC(=O)[C@H](O)[C@H](O)[C@H](O[C@@H]1O[C@H](CO)[C@H](O)[C@H](O)[C@H]1O)[C@@H](O)CO)/[N+]([O-])=C/c1ccc(CNC(=O)CCC(F)(F)C(F)(F)C(F)(F)C(F)(F)C(F)(F)C(F)(F)F)cc1
A: 30.3

***
Q: Entry under review: CCCCCCCC(=O)NCc1ccc(/C=[N+](\[O-])C(C)(C)CNC(=O)[C@H](O)[C@H](O)[C@H](O[C@@H]2O[C@H](CO)[C@H](O)[C@H](O)[C@H]2O)[C@@H](O)CO)cc1 . Reported inhibition at 10 µM?
A: 90.1

Q: // next record CC(C)(C)/[N+]([O-])=C/c1ccccc1
A: 20.6
